# measured-on: T1, human GLP-1 receptor (hGLP-1r) (Homo sapiens, UniProt P43220)
# T1 construct: expressed in transfected cells
# method-notes: BSA-cAMP assay, cells expressing human GLP-1 receptor
# Type: cell-based
# recorded-conditions: BSA-cAMP assay; batch 1 unless a batch is given; read-out: cAMP activity hGLP1r (EC50)
# Description: One basic cAMP assays was performed, differing in the medium used for the assay, the “BSA-cAMP assay”: BSA-based assay medium: 0.1% bovine serum albumin (BSA) in […] cAMP levels were measured using a commercially available cAMP dynamic 2 HTRF kit (Cisbio, Cat #62AM4PEJ), following the two step protocol as per manufacturer's recommendations. […]
Each entry below lists one item and its recorded log10 EC50 value.
readout: log10 EC50 (log10 of the value in nM)

{"molecule": "IP146 (protein, /note=“Description of Artificial Sequence Synthetic Peptide-linker-hinge polypeptide”) HGEGTFTSDVSSYLEGQAAKEFIAWLVKGAAAGGSGSTASSGSGSATGGGGAACPPCPAPEF", "readout": "log10 EC50", "measured-value": -1.31}
{"molecule": "IP150: isolated polypeptide named in b21; sequence stands in a table not shown here (protein, /note=“Description of Artificial Sequence Synthetic Peptide-linker-hinge polypeptide”) YSEGTFTSDVSSYLEGQAAKEFIAWLVAGGAPPGGSGSTASSGSGSATGGGGAATHTCPPCPAPEF", "readout": "log10 EC50", "measured-value": -1.48}
{"molecule": "IP199: isolated polypeptide named in b21; sequence stands in a table not shown here (protein, /note=“Description of Artificial Sequence Synthetic Peptide-linker-hinge polypeptide”) HGEGTFTSDVSSYLEGQAAKEFIAWLLAGAAAGGSGSTASSGSGSATGGGGAATHTCPPCPAPEF", "readout": "log10 EC50", "measured-value": -1.16}
{"molecule": "IP208: isolated polypeptide named in b21; sequence stands in a table not shown here (protein, /note=“Description of Artificial Sequence Synthetic Peptide-linker-hinge polypeptide”) YSEGTFTSDVSSYLEGQAAKEFIAWLLAGAAAGGSGSTASSGSGSATGGGGAATHTCPPCPAPEF", "readout": "log10 EC50", "measured-value": 0.20}
{"molecule": "IP204: isolated polypeptide named in b21; sequence stands in a table not shown here (protein, /note=“Description of Artificial Sequence Synthetic Peptide-linker-hinge polypeptide”) HGEGTFISDYSIAMDKIHQQDFVNWLLAQKAAAGGSGSTASSGSGSATGGGGAATHTCPPCPAPEF", "readout": "log10 EC50", "measured-value": 2.93}
{"molecule": "IP176: Fc fusion, IgG1-TM, SEQ ID NO:143; agonist peptide YSEGTFTSDVSSYMERQAISEFIAWLLKGP (protein, also: Fc fusion, IgG1-TM, agonist peptide YSEGTFTSDVSSYMERQAISEFIAWLLKGP) YSEGTFTSDVSSYMERQAISEFIAWLLKGPAAAGGSGSTASSGSGSATGGGGAATHTCPPCPAPEF", "readout": "log10 EC50", "measured-value": -0.22}
{"molecule": "IP246: Fc fusion, IgG1-TM, SEQ ID NO:116; agonist peptide YSEGTFTSDYSKLLEGQAAKLFIEWLVKGP (protein, also: Fc fusion, IgG1-TM, agonist peptide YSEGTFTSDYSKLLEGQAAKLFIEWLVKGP) YSEGTFTSDYSKLLEGQAAKLFIEWLVKGPAAAGGSGSTASSGSGSATGGGGAATHTCPPCPAPEF", "readout": "log10 EC50", "measured-value": -0.19}
{"molecule": "IP223 (protein, /note=“Description of Artificial Sequence Synthetic Peptide-linker-hinge polypeptide”) YSEGTFTSDVSSYMEEEAIDEFIAWLLKGGAAAGGSGSTASSGSGSATGGGGAATHTCPPCPAPEF", "readout": "log10 EC50", "measured-value": 1.20}
{"molecule": "IP224 (protein, /note=“Description of Artificial Sequence Synthetic Peptide-linker-hinge polypeptide”) YSEGTFTSDVSSYMERQAIDEFIAWLLGGGAAAGGSGSTASSGSGSATGGGGAATHTCPPCPAPEF", "readout": "log10 EC50", "measured-value": -0.24}
{"molecule": "IP171: Fc fusion, IgG1-TM, SEQ ID NO:142; agonist peptide YSEGTFTSDVSSYMERQAISEFIAWLLAG (protein, also: Fc fusion, IgG1-TM, agonist peptide YSEGTFTSDVSSYMERQAISEFIAWLLAG) YSEGTFTSDVSSYMERQAISEFIAWLLAGAAAGGSGSTASSGSGSATGGGGAATHTCPPCPAPEF", "readout": "log10 EC50", "measured-value": -0.28}
{"molecule": "IP194 (protein, /note=“Description of Artificial Sequence Synthetic Peptide-linker-hinge polypeptide”) HGEGTFTSDVSSYLEGQAAKEFIAWLVKGAAAGGSGSTASSGSGSATGGGGPPCPPCPAPEF", "readout": "log10 EC50", "measured-value": -1.21}
{"molecule": "IP226 (protein, /note=“Description of Artificial Sequence Synthetic Peptide-linker-hinge polypeptide”) YSEGTFTSDVSKLLERQAIDEFIAWLLKGGAAAGGSGSTASSGSGSATGGGGAATHTCPPCPAPEF", "readout": "log10 EC50", "measured-value": -0.70}
{"molecule": "IP227 (protein, /note=“Description of Artificial Sequence Synthetic Peptide-linker-hinge polypeptide”) YSEGTFTSDVSSYMERQAIDEFVNDLLKGGAAAGGSGSTASSGSGSATGGGGAATHTCPPCPAPEF", "readout": "log10 EC50", "measured-value": 1.68}
